Give IC50 for every item shown.
# MEASURED_TARGET: Prostaglandin G/H synthase 1 (Homo sapiens)
# Sequence (P23219 whole entry): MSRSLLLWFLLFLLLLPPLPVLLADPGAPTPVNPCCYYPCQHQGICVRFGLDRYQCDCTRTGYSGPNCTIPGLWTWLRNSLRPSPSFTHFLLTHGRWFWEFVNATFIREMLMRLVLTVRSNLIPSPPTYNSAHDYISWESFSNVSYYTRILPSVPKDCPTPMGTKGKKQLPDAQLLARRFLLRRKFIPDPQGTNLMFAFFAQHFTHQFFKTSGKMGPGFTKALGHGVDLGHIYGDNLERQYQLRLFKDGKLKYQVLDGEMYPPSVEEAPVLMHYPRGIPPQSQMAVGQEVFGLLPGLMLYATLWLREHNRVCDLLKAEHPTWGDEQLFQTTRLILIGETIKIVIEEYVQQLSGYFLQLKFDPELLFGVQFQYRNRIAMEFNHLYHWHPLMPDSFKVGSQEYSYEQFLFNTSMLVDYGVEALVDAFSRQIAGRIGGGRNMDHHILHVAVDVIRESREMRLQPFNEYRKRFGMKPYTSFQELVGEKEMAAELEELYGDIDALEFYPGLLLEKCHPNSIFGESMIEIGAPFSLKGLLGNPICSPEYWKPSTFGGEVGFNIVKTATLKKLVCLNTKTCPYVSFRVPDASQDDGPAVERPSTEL
# METHOD: Inhibition of COX1-mediated TXB2 production in human whole blood after 30 mins by competitive enzyme immunoassay
Report as a plain number; the unit µM is understood.

Tested system Prostaglandin G/H synthase 1 (Homo sapiens); IC50 recorded for Cc1ccc(COc2ccc3c(c2)c(SC(C)(C)C)c(CC(C)(C)C(=O)O)n3Cc2ccc(-c3cncc(F)c3)cc2)nc1 was 3.2

Tested system Prostaglandin G/H synthase 1 (Homo sapiens); IC50 recorded for Cc1ccc(COc2ccc3c(c2)c(SC(C)(C)C)c(CC(C)(C)C(=O)O)n3Cc2ccc(-c3ccccn3)cc2)nc1 was 9

Tested system Prostaglandin G/H synthase 1 (Homo sapiens); IC50 recorded for CCOc1cccc(-c2ccc(Cn3c(CC(C)(C)C(=O)O)c(SC(C)(C)C)c4cc(OCc5ccc(C)cn5)ccc43)cc2)n1 was 0.62

Tested system Prostaglandin G/H synthase 1 (Homo sapiens); IC50 recorded for Cc1ccc(COc2ccc3c(c2)c(SC(C)(C)C)c(CC(C)(C)C(=O)O)n3Cc2ccc(-c3cc(C(F)(F)F)ccn3)cc2)nc1 was 18

---

# MEASURED_TARGET: Arachidonate 5-lipoxygenase-activating protein (Homo sapiens, UniProt P20292)
# Sequence (P20292 whole entry): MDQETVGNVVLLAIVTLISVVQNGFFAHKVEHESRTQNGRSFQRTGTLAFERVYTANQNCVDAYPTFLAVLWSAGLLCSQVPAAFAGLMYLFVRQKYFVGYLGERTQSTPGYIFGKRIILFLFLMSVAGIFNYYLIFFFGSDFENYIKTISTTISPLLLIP
# METHOD: Inhibition of FLAP in human whole blood assessed as inhibition of calcium ionophore A23187-induced LTB4 production preincubated for 15 mins by ELISA
PROPERTY_MEASURED: pIC50
// pIC50 here means minus log10 of the molar concentration (mol/L)

Tested system Arachidonate 5-lipoxygenase-activating protein (Homo sapiens, UniProt P20292); pIC50 recorded for COc1cccc(-c2ccc(Cn3c(CC(C)(C)C(=O)O)c(SC(C)(C)C)c4cc(OCc5ccc(C)cn5)ccc43)cc2)n1 was 6.63

Tested system Arachidonate 5-lipoxygenase-activating protein (Homo sapiens, UniProt P20292); pIC50 recorded for COc1ccc(-c2ccc(Cn3c(CC(C)(C)C(=O)O)c(SC(C)(C)C)c4cc(OCc5ncccc5C)ccc43)cc2)cn1 was 5.89

Tested system Arachidonate 5-lipoxygenase-activating protein (Homo sapiens, UniProt P20292); pIC50 recorded for CCOc1ccc(-c2ccc(Cn3c(CC(C)(C)C(=O)O)c(SC(C)(C)C)c4cc(OCc5ccc(C)cn5)ccc43)cc2)cn1 was 6.30

Tested system Arachidonate 5-lipoxygenase-activating protein (Homo sapiens, UniProt P20292); pIC50 recorded for Cc1ccc(COc2ccc3c(c2)c(SC(C)(C)C)c(CC(C)(C)C(=O)O)n3Cc2ccc(-c3cccc(C(F)(F)F)n3)cc2)nc1 was 6.30

Tested system Arachidonate 5-lipoxygenase-activating protein (Homo sapiens, UniProt P20292); pIC50 recorded for COc1ccc(-c2ccc(Cn3c(CC(C)(C)C(=O)O)c(SC(C)(C)C)c4cc(OCc5ccc(C)c(C)n5)ccc43)cc2)cn1 was 6.24

Tested system Arachidonate 5-lipoxygenase-activating protein (Homo sapiens, UniProt P20292); pIC50 recorded for COc1ccc(-c2ccc(Cn3c(CC(C)(C)C(=O)O)c(SC(C)(C)C)c4cc(OCc5ccc(C)cn5)ccc43)cc2)cn1 was 6.48

Tested system Arachidonate 5-lipoxygenase-activating protein (Homo sapiens, UniProt P20292); pIC50 recorded for CCOc1ccc(-c2ccc(Cn3c(CC(C)(C)C(=O)O)cc4cc(OCc5ccc(C)cn5)ccc43)cc2)cn1 was 4.65

Tested system Arachidonate 5-lipoxygenase-activating protein (Homo sapiens, UniProt P20292); pIC50 recorded for COc1ccc(-c2ccc(Cn3c(CC(C)(C)C(=O)O)c(SC(C)(C)C)c4cc(OCc5cnc(C)cn5)ccc43)cc2)cn1 was 6.68

Tested system Arachidonate 5-lipoxygenase-activating protein (Homo sapiens, UniProt P20292); pIC50 recorded for COc1ccc(-c2ccc(Cn3c(CC(C)(C)C(=O)O)c(SC(C)(C)C)c4cc(OCc5ccc6ccccc6n5)ccc43)cc2)cn1 was 6.30

Tested system Arachidonate 5-lipoxygenase-activating protein (Homo sapiens, UniProt P20292); pIC50 recorded for COc1ccc(-c2ccc(Cn3c(CC(C)(C)C(=O)O)c(SC(C)(C)C)c4cc(OCc5ccc(Cl)cn5)ccc43)cc2)cn1 was 5.94

Tested system Arachidonate 5-lipoxygenase-activating protein (Homo sapiens, UniProt P20292); pIC50 recorded for COc1cnc(-c2ccc(Cn3c(CC(C)(C)C(=O)O)c(SC(C)(C)C)c4cc(OCc5ccc(C)cn5)ccc43)cc2)nc1 was 6.79

Tested system Arachidonate 5-lipoxygenase-activating protein (Homo sapiens, UniProt P20292); pIC50 recorded for COc1ccc(-c2ccc(Cn3c(CC(C)(C)C(=O)O)c(SC(C)(C)C)c4cc(OCc5cc(C)nn5C)ccc43)cc2)cn1 was 4.78

Tested system Arachidonate 5-lipoxygenase-activating protein (Homo sapiens, UniProt P20292); pIC50 recorded for COc1ccc(-c2ccc(Cn3c(CC(C)(C)C(=O)O)c(SC(C)(C)C)c4cc(OCc5cc(C)n(C)n5)ccc43)cc2)cn1 was 4.58

Tested system Arachidonate 5-lipoxygenase-activating protein (Homo sapiens, UniProt P20292); pIC50 recorded for COc1cccnc1-c1ccc(Cn2c(CC(C)(C)C(=O)O)c(SC(C)(C)C)c3cc(OCc4ccc(C)cn4)ccc32)cc1 was 5.84

Tested system Arachidonate 5-lipoxygenase-activating protein (Homo sapiens, UniProt P20292); pIC50 recorded for COc1ccc(-c2ccc(Cn3c(CC(C)(C)C(=O)O)c(SC(C)(C)C)c4cc(OCc5cc(C)ccn5)ccc43)cc2)cn1 was 5.48
